// data source = patent US20260317356A1

Provide the reported IC50 of each item.
tested.system: UniProtKB O15527
Sequence (O15527 12-323): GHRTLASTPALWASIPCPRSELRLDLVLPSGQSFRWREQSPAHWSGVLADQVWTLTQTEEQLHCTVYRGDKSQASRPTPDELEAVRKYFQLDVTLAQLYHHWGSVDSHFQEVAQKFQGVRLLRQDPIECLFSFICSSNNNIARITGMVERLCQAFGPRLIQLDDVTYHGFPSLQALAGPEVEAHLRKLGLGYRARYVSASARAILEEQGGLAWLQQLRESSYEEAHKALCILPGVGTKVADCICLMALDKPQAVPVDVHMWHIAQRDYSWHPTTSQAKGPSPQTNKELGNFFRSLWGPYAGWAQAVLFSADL
assay.summary: Biochemical fluorescence assay to measure enzymatic activity of hOGG1 (OGG1/APEX IC50)
Design: Protein His-hOGG1 (12-323) was prepared; His (N); host or cells: E. coli
recorded.conditions: 1 nM OGG1+2 nM APEX+6 nM dsDNA (8-oxo-dG substrate); pH 7.5; RT 40 min; read-out: OGG1/APEX IC50

Quick one: IC50 of COc1cc(NC(=O)[C@H]2CC[C@@H](N3Cc4c(ccnc4C)NC3=O)CC2)ccc1C [Example 43] ? < 100 nM

Recorded IC50 for COc1cc(NC(=O)[C@H]2CC[C@@H](N3Cc4c(Cl)cccc4N(C)C3=O)CC2)ccc1C [Example 73] , please? 100 to 1000 nM

Fill in: IC50 of COc1cc(NC(=O)[C@H]2CC[C@@H](n3[nH]c4c(Br)cccc4c3=O)CC2)ccc1C (single isomer, unassigned) [Example 160] is ___ 100 to 1000 nM

I am curious: what IC50 value has been reported for COc1cc(NC(=O)[C@H]2CC[C@@H](N3Cc4c(C)cc(N(C)C)cc4C3=O)CC2)ccc1C [Example 135] ? < 100 nM

What value of IC50 has been reported for the following compound? COc1cc(NC(=O)[C@H]2CC[C@@H](N3Cc4c(C)cc(NCCN(C)C)cc4C3=O)CC2)ccc1C [Example 208] < 100 nM

So what does the record say about IC50 for COc1cc(NC(=O)C[C@H]2C[C@H](N3Cc4c(Br)cccc4C3=O)C2)ccc1C [Example 187] ? > 10000 nM

I would be grateful if you could share the reported IC50 for COc1cc(NC(=O)[C@H]2CC[C@@H](n3oc4c(Br)cccc4c3=O)CC2)ccc1C [Example 184] . > 10000 nM

Which IC50 is reported for this compound? COc1ccc(NC(=O)[C@]2(C)CC[C@H](N3Cc4c(C)ccc(OC)c4NC3=O)CC2)cc1Cl (single isomer, unassigned) [Example 7] < 100 nM

// query IC50 value for entry COc1cccc(NC(=O)[C@H]2CC[C@@H](N3Cc4c(C)cccc4C3=O)CC2)c1 [Example 245] 1000 to 10000 nM

I would be grateful if you could share the reported IC50 for COc1cc(NC(=O)[C@H]2CC[C@@H](N3Cc4c(F)cccc4NC3=O)CC2)ccc1C [Example 75] . 100 to 1000 nM

Look up IC50 for this compound: COc1cc(NC(=O)[C@H]2CC[C@@H](N3Cc4c(C)cc(C(=O)O)cc4NC3=O)CC2)ccc1C [Example 79] 100 to 1000 nM

Please give the measured IC50 for this compound: C=Cc1ccc(C)c2c1NC(=O)N([C@H]1CC[C@@H](C(=O)Nc3ccc(C)c(OC)c3)CC1)C2 [Example 55] < 100 nM

Using the record for COc1cc(NC(=O)C2C[C@@H]3[C@H](C2)[C@H]3N2Cc3c(Br)cccc3C2=O)ccc1C (single isomer, unassigned) [Example 247] , report its IC50. > 10000 nM

Could you share which IC50 value was measured for COc1cc(NC(=O)[C@H]2CC[C@@H](N3Cc4c(Br)cc(NC(=O)CCN(C)C)cc4C3=O)CC2)ccc1C [Example 204] ? < 100 nM
